# Tested on: SK-MEL-5
# METHOD_DESCRIPTION: NCI tumour cell line growth inhibition, 48 h
The source made the active and inactive calls. Cut-off read from the data, not from the text of the source: active = GI50 up to about 1.1 µM and inactive = higher.
Please state which outcome applies, choosing from TRUE (active), FALSE (inactive)

Inquiry: Query: recorded result category for "CCOc1ccc(NC(=O)CCc2nnc(SC)o2)cc1" in this test
Reply text: FALSE

Inquiry: Query: recorded result category for CC(=O)O/C=C\OC1CCCC1(c1ccccc1)c1ccccc1 (stereo not drawn) in this test
Reply text: FALSE

---

# Tested on: NCI-H522
# METHOD_DESCRIPTION: NCI tumour cell line growth inhibition, 48 h
Calls of active or inactive are those of the source. Rule as the data show it: active = GI50 up to about 1.1 µM and inactive = higher.
Please state which outcome applies, choosing from T = active, F = inactive

Past entries and their recorded results:
N#CC(=N)c1ncn(-c2ccc(N)cc2)c1N; F
COc1ccc(CNc2cc(OC)cc(OC)c2)cc1; F
Cc1cccc2c(N)c3cccc(C(=O)NCC[N+]4(Cc5ccc([N+](=O)[O-])cc5)CCOCC4)c3nc12; F
CC[C@@H]1CC[C@@H]2[C@H](CC[C@]3(C)[C@@H](O)CC[C@@H]23)[C@H]1C(=O)O; F
OC1COC(n2c3ccc(Br)cc3c3ccc4c5ccccc5[nH]c4c32)C(O)C1O (centres undefined); F
CCOC(=O)C(Cc1ccc2c(c1)CCC2)Cc1ccc2c(c1)CCC2; F
COc1ccc(NC(=O)C2=C(SC)C(C#N)C(=O)N=C2N)cc1 (centres undefined); F
CCN(CCCN(CC)C(=O)N[C@@H](Cc1ccccc1)C(=O)NC)C(=O)N[C@@H](Cc1ccccc1)C(=O)NC; F

Inquiry: Query: recorded result category for "COc1nc(N)nc2nc[nH]c12" in this test
Reply text: F

Inquiry: Query: recorded result category for "C=C(CS(=O)(=O)c1ccccc1)C(=O)OCC" in this test
Reply text: F

Inquiry: Query: recorded result category for "CCCCCN(CCCCC)C(=O)[C@H](CCC(=O)O)NC(=O)c1cc2ccccc2[nH]1" in this test
Reply text: F

---

# Test system: 786-0
# METHOD_DESCRIPTION: NCI tumour cell line growth inhibition, 48 h
The source made the active and inactive calls. No stated cut-off is given here; in the data, active = GI50 up to about 1.1 µM and inactive = higher.
Please state which outcome applies, choosing from True = active, False = inactive

Past entries and their recorded results:
COc1ccccc1NC(=O)C1=C(C)NC(C)=C(C(=O)Nc2ccccc2OC)C1c1ccco1; False
CCOC(=O)C(Cc1ccc2c(c1)CCC2)Cc1ccc2c(c1)CCC2; False
Cc1nc(-c2cc3cc(Cl)ccc3oc2=O)cc2c1c(=O)oc1ccc(Cl)cc12; False
COC(=O)c1ccc(C)cc1CC1Cc2cccc(C)c2C1=O (stereo not drawn); False
CCN(CCCN(CC)C(=O)N[C@@H](Cc1ccccc1)C(=O)NC)C(=O)N[C@@H](Cc1ccccc1)C(=O)NC; False

Pending molecule:
Inquiry: Query: recorded result category for OCC1OC(n2nc(-c3ccccc3)nc2-c2cnccn2)C(O)C1O (stereo not drawn) in this test
Reply text: False

---

# Lookup of reported GI50 keyed by entry
# System: M14
# METHOD_DESCRIPTION: NCI tumour cell line growth inhibition, 48 h
The source made the active and inactive calls. No stated cut-off is given here; in the data, active = GI50 up to about 1.1 µM and inactive = higher.

Cc1cc(C)c(S(=O)(=O)N2CCCN(S(=O)(=O)c3c(C)cc(C)cc3C)OCCCON(S(=O)(=O)c3c(C)cc(C)cc3C)CCCN(S(=O)(=O)c3c(C)cc(C)cc3C)OCCCO2)c(C)c1; > 100 µM (inactive)

Inquiry: Entry "c1cncc(CNCc2cccnc2)c1" , system M14: what GI50 was measured?
Reply text: > 100 µM (inactive)

Inquiry: Entry "O=C(n1c(=O)n(-c2ccc([N+](=O)[O-])cc2)c(=O)n1C(=O)C(Cl)(Cl)Cl)C(Cl)(Cl)Cl" , system M14: what GI50 was measured?
Reply text: > 100 µM (inactive)

Inquiry: Entry CC(NC(=O)Cc1ccccc1)NC(=O)C(C)C(=O)NCc1ccccc1 (stereo unspecified) , system M14: what GI50 was measured?
Reply text: > 100 µM (inactive)

Inquiry: Entry "CC(C)S(=O)(=O)ON1C(=O)c2ccc([N+](=O)[O-])cc2C1=O" , system M14: what GI50 was measured?
Reply text: > 100 µM (inactive)

Inquiry: Entry "O=[As]O" , system M14: what GI50 was measured?
Reply text: > 50.5 µM (inactive)

---

# Lookup of reported GI50 keyed by entry
# Tested on: NCI-H23
# METHOD_DESCRIPTION: NCI tumour cell line growth inhibition, 48 h
Activity calls are given as the source filed them. No stated cut-off is given here; in the data, active = GI50 up to about 1.1 µM and inactive = higher.

O=C1CSC(c2ccccc2O)N1c1ccc(Oc2ccc(Cl)cc2)c(Cl)c1 (centres undefined); 18.1 µM (inactive)
O=C(Nc1ccc(N2C(=O)CSC2c2cccs2)cc1)c1ccc(N2C(=O)CSC2c2cccs2)cc1 (centres undefined); 24.8 µM (inactive)
CC(C)(CN1CCCCC1)C(=O)/C=C/c1ccc(Br)cc1; 2.77 µM (inactive)
C[C@]12CC[C@H](OC(=O)Cc3ccc(N(CCCl)CCCl)cc3)CC1CC[C@@H]1C2CC[C@]2(C)NC(=O)CCC12 (some centres undefined); 11.8 µM (inactive)

Inquiry: Given the entry "N#Cc1sc2c(c1OC(=O)c1ccc(Cl)cc1Cl)c(=O)n(-c1ccccc1)c(=S)n2-c1ccccc1" , report its measured GI50.
Reply text: 18.8 µM (inactive)

Inquiry: Given the entry "Cc1ccc(-c2nc(-c3nccc4ccccc34)oc2-c2ccccc2)cc1" , report its measured GI50.
Reply text: > 100 µM (inactive)

Inquiry: Given the entry "CNC(=S)NN=C1NCCCN1" , report its measured GI50.
Reply text: > 100 µM (inactive)

Inquiry: Given the entry c1n[nH]cc1C12C3C4C5C3C1C5C42 (centres undefined) , report its measured GI50.
Reply text: > 100 µM (inactive)

Inquiry: Given the entry "CNC(=S)/C(=N\Nc1[nH]cnc1C(N)=O)C(N)=S" , report its measured GI50.
Reply text: 17.3 µM (inactive)

---

# Lookup of reported GI50 keyed by entry
# Tested on: KM12
# METHOD_DESCRIPTION: NCI tumour cell line growth inhibition, 48 h
Calls of active or inactive are those of the source. No stated cut-off is given here; in the data, active = GI50 up to about 1.1 µM and inactive = higher.

COc1ccc(CNc2cc(OC)cc(OC)c2)cc1; 84.3 µM (inactive)
O=C(O)CCC(NC(=O)c1ccc(Nc2nc3cc(C(F)(F)F)ccc3nc2C(=O)O)cc1)C(=O)O (centres undefined); > 100 µM (inactive)
C1COCCSC2=C(SCCO1)SC(=C1SC3=C(SCCOCCOCCS3)S1)S2; > 100 µM (inactive)
COc1ccc([C@H]2C=[N+]([O-])O[C@H](OC3CCCC3)[C@@H]2OC(C)=O)cc1OC; 26.4 µM (inactive)
CNC(=S)/C(=N\Nc1[nH]cnc1C(N)=O)C(N)=S; 4.09 µM (inactive)
O=C(OC[C@H]1O[C@@H](OC(=O)c2cc(O)c(O)c(O)c2)[C@H](OC(=O)c2cc(O)c(O)c(O)c2)[C@@H](OC(=O)c2cc(O)c(O)c(O)c2)[C@@H]1OC(=O)c1cc(O)c(O)c(O)c1)c1cc(O)c(O)c(O)c1; 2.34 µM (inactive)

Inquiry: Given the entry CCOC(=O)CNC(=O)C(CCC(=O)N(C)O)NC(=O)CCC(N)C(=O)O (centres undefined) , report its measured GI50.
Reply text: > 100 µM (inactive)

Inquiry: Given the entry "CCOC(=O)c1c(N2CCOCC2)[nH]c(=O)c(C(c2ccco2)c2c(O)c(C(=O)OCC)c(N3CCOCC3)[nH]c2=O)c1O" , report its measured GI50.
Reply text: > 100 µM (inactive)

Inquiry: Given the entry COc1ccc(N2C(=O)C3C=CC(n4[nH]c(=O)n(Cc5ccccc5)c4=O)CC3C2=O)cc1 (centres undefined) , report its measured GI50.
Reply text: > 100 µM (inactive)

---

# Lookup of reported GI50 keyed by entry
# Tested on: SF-295
# METHOD_DESCRIPTION: NCI tumour cell line growth inhibition, 48 h
Calls of active or inactive are those of the source. No stated cut-off is given here; in the data, active = GI50 up to about 1.1 µM and inactive = higher.

Examples with answers:
O=C(/C=C1\C[C@H]2C=Nc3ccccc3C(=O)N2C1)NCCCNC(=O)/C=C1\C[C@H]2C=Nc3ccccc3C(=O)N2C1; 19 µM (inactive)
COc1cc(CNc2nc3ccccc3n2Cc2ccccc2)cc(CN2CCOCC2)c1O; 19.3 µM (inactive)
COc1ccc([C@@H]2CC(=O)NCCCCNCCCN2)cc1; > 100 µM (inactive)

Inquiry: Given the entry "COc1cc(C2=NNC(=O)c3ccccc3N2c2nc(-c3cccs3)nc3ccc(Br)cc23)cc(OC)c1OC" , report its measured GI50.
Reply text: 5.06 µM (inactive)

Inquiry: Given the entry "CC(C)(CN1CCCCC1)C(=O)/C=C/c1ccc(Br)cc1" , report its measured GI50.
Reply text: 5.09 µM (inactive)

Inquiry: Given the entry "COc1ccc(CCNC(=O)CCCCCO)cc1OC" , report its measured GI50.
Reply text: > 100 µM (inactive)

Inquiry: Given the entry "CN(C)CCC(=O)/C=C\c1ccccc1" , report its measured GI50.
Reply text: 20.3 µM (inactive)

Inquiry: Given the entry CC1=NN(C(=O)CC(=O)N(C(=O)c2ccccc2Cl)c2ccc(C)cc2)C(=O)C1/N=N/c1ccc([N+](=O)[O-])cc1 (stereo not given) , report its measured GI50.
Reply text: 58.5 µM (inactive)

Inquiry: Given the entry O=C1CCC(Cc2ccc(Cl)cc2Cl)C(=O)N1 (stereo not given) , report its measured GI50.
Reply text: > 100 µM (inactive)

Inquiry: Given the entry CCCCCCCCCCCCCCCC(=O)OCC(COP(=O)(O)OCCNC(=O)CCSSc1ccccn1)OC(=O)CCCCCCCCCCCCCCC (stereo not given) , report its measured GI50.
Reply text: > 100 µM (inactive)

Inquiry: Given the entry Cc1nc2c(Br)cc(Br)cc2c(=O)n1-c1ccccc1NC1OC(CO)C(O)C(O)C1O (stereo not given) , report its measured GI50.
Reply text: > 100 µM (inactive)

Inquiry: Given the entry COC(=O)c1ccc(C)cc1CC1Cc2cccc(C)c2C1=O (stereo not given) , report its measured GI50.
Reply text: 6.49 µM (inactive)
